- ASSAYED TARGET: D(3) dopamine receptor (Homo sapiens)
- Sequence (P35462 whole entry): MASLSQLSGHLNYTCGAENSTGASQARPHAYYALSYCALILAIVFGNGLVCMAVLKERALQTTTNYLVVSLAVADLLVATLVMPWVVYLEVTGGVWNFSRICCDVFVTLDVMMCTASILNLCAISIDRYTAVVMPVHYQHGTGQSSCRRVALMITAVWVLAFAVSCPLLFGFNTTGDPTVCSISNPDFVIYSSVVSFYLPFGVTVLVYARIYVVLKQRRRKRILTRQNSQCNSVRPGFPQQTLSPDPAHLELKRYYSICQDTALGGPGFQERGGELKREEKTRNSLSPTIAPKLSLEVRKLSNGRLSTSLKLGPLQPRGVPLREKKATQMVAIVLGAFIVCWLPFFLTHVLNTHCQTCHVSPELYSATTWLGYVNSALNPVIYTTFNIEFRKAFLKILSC
pKi: −log10 of the molar value.
OBSERVED PROPERTY: pKi

MOLECULE SMILES: O=C(CCCN1CC2CCC(C1)N2c1ccccc1)c1ccc(F)cc1
MEASURED: 6.22

---

- ASSAYED TARGET: UniProtKB P28335
- Sequence (P28335 whole entry): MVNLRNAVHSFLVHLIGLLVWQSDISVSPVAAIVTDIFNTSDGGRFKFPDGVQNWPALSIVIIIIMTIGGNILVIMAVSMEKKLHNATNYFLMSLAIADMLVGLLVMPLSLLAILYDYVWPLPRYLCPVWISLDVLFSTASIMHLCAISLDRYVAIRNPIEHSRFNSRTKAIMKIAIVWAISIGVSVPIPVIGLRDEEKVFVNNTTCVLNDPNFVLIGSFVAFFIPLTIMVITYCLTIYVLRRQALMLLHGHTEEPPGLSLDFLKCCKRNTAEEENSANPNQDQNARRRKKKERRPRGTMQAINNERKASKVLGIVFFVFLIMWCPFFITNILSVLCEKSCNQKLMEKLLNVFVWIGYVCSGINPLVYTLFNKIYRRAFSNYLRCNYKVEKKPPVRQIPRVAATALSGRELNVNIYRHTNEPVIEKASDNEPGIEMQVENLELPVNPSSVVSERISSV
pKi: −log10 of the molar value.

COMPOUND: O=C(CCCN1C2CCC1CC(O)(c1ccccc1)C2)c1ccc(F)cc1 (configuration not stated)
ASSAYED TARGET: UniProtKB P28335
COMPARISON SIGN: <
pKi: 5.00

COMPOUND: O=C(CCCN1C2CCC1CC(c1ccccc1)C2)c1ccc(F)cc1 (configuration not stated)
ASSAYED TARGET: UniProtKB P28335
COMPARISON SIGN: =
pKi: 5.97
